Every entry's value here was drawn from paper PMC9860126.

- measurement-target: HpNikR E62A (Helicobacter pylori G27, UniProt A1YSQ9 1-148, E62A)
- protocol-text: fluorescence anisotropy; Ni(II)-bound; FA: 5 nM DNA, 20 mM Tris pH 7.6, 100 mM NaCl, 3 mM MgSO4, temperature not stated (Ni loading 1.2 eq NiSO4 per monomer at RT). EMSA: 20 mM Tris pH 7.5, 100 mM KCl, 3 mM MgCl2, 0.1% IGEPAL, 5% glycerol, 0.1 mg/ml herring sperm DNA, RT; gel with 800 uM NiSO4 at 4 C
- assay-context: protein: recombinant; tags: none stated; chain copies: 4; label: fluorescein on internal thymine (T14 of strand 1); blunt
Each entry below lists one item and its recorded Kd value.

{"columns": ["binder", "measure-unit", "Kd"],
 "data": [
  ["ureA promoter 32 bp (FA) (dsDNA) DNA 1: ATATAACACTAATTCATTTTAAATAATAATTA DNA 2: TAATTATTATTTAAAATGAATTAGTGTTATAT", "nM", 10.1],
  ["ureA-perf promoter 32 bp (dsDNA) DNA 1: ATATATTATTAATTCATTTTAAATAATAATTA DNA 2: TAATTATTATTTAAAATGAATTAATAATATAT", "nM", 2.9]
]}
